system_under_test: T1, GFP-9S library array, motif 4 ND N98M;D124P (synthetic construct, N98M;D124P)
T1 chain: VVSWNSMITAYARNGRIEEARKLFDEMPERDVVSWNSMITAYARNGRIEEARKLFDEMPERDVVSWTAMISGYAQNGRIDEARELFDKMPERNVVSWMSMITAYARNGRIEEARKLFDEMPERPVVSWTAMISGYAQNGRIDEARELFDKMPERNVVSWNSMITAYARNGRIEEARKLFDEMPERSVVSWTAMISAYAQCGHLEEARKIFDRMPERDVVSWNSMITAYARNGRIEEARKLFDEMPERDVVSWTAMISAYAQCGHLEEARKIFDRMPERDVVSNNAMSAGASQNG
assay_details: high-throughput RNA pulldown from lysate on Ni-NTA beads; HRP: 50 mM Tris pH 8, 150 mM NaCl, 1 mM beta-mercaptoethanol, 50 ug/ml BSA, 3 ug/ml yeast RNA, 0.5% heparin; ITC and FP: Tris pH 8, 200 mM KCl, 5% glycerol; MST: 50 mM Tris pH 8, 200 mM NaCl, 1 mM DTT, BSA, heparin, 0.05% Tween 20
assay_context: tags: N-terminal His-eGFP; label: 5' IRDye 800CW
attribute_measured: Kd (nM)
Quick reminder: number only, in nM, skip the unit.

# binder, scale_unit, Kd
records = [
    ("AUUAUACGUGA (ssRNA) [IR-rpoA-U]", "nM", 296),
]

stdin: // Kd lookup, key: AUUAAACGUGA (ssRNA) [IR-rpoA-A]
stdout: 264

The reported numbers originate from paper PMC8809517.
